Tested on: T. brucei brucei GUTat 3.1
Test: In vitro anti-trypanosomal activity (Alamar Blue)
Assay type: cell-based, Trypanosoma brucei brucei
Conditions: Trypanosoma brucei, 72 h, T. brucei brucei GUTat 3.1 strain, 2.0–2.5 × 10^4 trypanosomes/mL, 72 h; read-out: IC50 anti-trypanosomal activity
// reported IC50 per item
RECORDED_METRIC: IC50 (µg/mL)

INSERT INTO assay_data (compound, unit_tag, qualifier_operator, recorded_value) VALUES
  ('COc1ccc(CN2C(=O)[C@@]3(C)CCCN4C(=O)[C@]5(C(C)=O)O[C@@]43[C@@]3(c4ccccc4N(S(=O)(=O)c4ccccc4[N+](=O)[O-])[C@H]53)[C@H]2C(=O)NC(C)(C)C)cc1 (racemic) [25b]', 'µg/mL', '>', 12.5),
  ('CC(=O)[C@@]12C[C@@H]3CN([C@H](C(=O)NC(C)(C)C)c4c[nH]c5ccccc45)C(=O)[C@@]4(C)CCCN(C1=O)[C@@]34O2 [39c]', 'µg/mL', '>', 12.5),
  ('CC(=O)[C@]12O[C@]34[C@@H](CN([C@H](C(=O)NC(C)(C)C)c5cn(S(=O)(=O)c6ccccc6[N+](=O)[O-])c6ccccc56)C(=O)[C@@]3(C)CCCN4C1=O)C2(C)C [41b]', 'µg/mL', '=', 5.89),
  ('COc1ccc(CN2C(=O)[C@@]3(C)CCCN4C(=O)[C@]5(C(C)=O)O[C@@]43[C@@]3(c4ccccc4N(S(=O)(=O)c4ccccc4[N+](=O)[O-])[C@H]53)[C@@H]2C(=O)NC(C)(C)C)cc1 (racemic) [25a]', 'µg/mL', '=', 5.9),
  ('N=C(N)c1ccc(OCCCCCOc2ccc(C(=N)N)cc2)cc1 [pentamidine, reference compound]', 'µg/mL', '=', 0.00158),
  ('NCCCC(N)(C(=O)O)C(F)F (stereo not drawn) [eflornithine, reference compound]', 'µg/mL', '=', 2.27);
